Target: cysteines in MDA-MB-231 and Ramos cells (Homo sapiens, UniProt Q99757)
Sequence (Q99757 60-166): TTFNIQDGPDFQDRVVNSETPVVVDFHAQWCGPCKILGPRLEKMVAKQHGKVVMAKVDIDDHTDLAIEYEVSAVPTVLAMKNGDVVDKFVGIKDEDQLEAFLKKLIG
Method description: Competitive isoTOP-ABPP in situ (fragment-treated cells)
Format: cell-based
Condition notes: 200 μM, insitu, 231
Given measured isoTOP-ABPP ratio Q99757_C90, output met if it is greater than or equal to 4 and not met if not.

Test whether the molecule CC(C)CCOCCNC(=O)CCl [compound 27] records isoTOP-ABPP ratio Q99757_C90 of 4 or higher.
met

Test whether the molecule CC1CCc2ccccc2N1C(=O)CCl (centres unmarked) [compound 45] records isoTOP-ABPP ratio Q99757_C90 of 4 or higher.
met

Test whether the molecule O=C(CCl)NC12CC3CC(CC(C3)C1)C2 [compound 21] records isoTOP-ABPP ratio Q99757_C90 of 4 or higher.
met

Test whether the molecule O=C(CCl)NC(=O)NC12CC3CC(CC(C3)C1)C2 [compound 12] records isoTOP-ABPP ratio Q99757_C90 of 4 or higher.
met

Test whether the molecule C=CC(=O)N(Cc1cccnc1)c1cc(C(F)(F)F)cc(C(F)(F)F)c1 [compound 31] records isoTOP-ABPP ratio Q99757_C90 of 4 or higher.
not met

Test whether the molecule Cc1ccc(C=C(C#N)C(=O)NCCN2CCOCC2)cc1 [compound 41] records isoTOP-ABPP ratio Q99757_C90 of 4 or higher.
not met

Test whether the molecule C=CC(=O)Nc1cc(F)c(N2CCN(C(=O)OC(C)(C)C)CC2)c(F)c1 [compound 38] records isoTOP-ABPP ratio Q99757_C90 of 4 or higher.
not met

Test whether the molecule O=C(CCl)Nc1cccc2ncccc12 [compound 51] records isoTOP-ABPP ratio Q99757_C90 of 4 or higher.
met

Data origin: patent US10670605B2
